System: A-375
Assay: Induction of apoptosis in human A375 cells assessed as caspase 3 activation at 1 uM after 24 hrs by fluorimetry
Assay type: functional, cell-based
The source made the active and inactive calls. No cut-off for these calls is given here.
parameterMeasured: Activity

>>> print(df.to_string())
                                querysmiles  result
0  COc1cc2c(cc1OCCCN1CCN(C(=O)c3ccccc3NCc3ccc4ccccc4c3)CC1)N=C[C@@H]1CCCN1C2=O  Active
1         COc1cc2c(cc1O)N=C[C@@H]1CCCN1C2=O  Active
2  COc1cc2c(cc1OCCCCCN1CCN(C(=O)c3ccccc3NCc3ccc4ccccc4c3)CC1)N=C[C@@H]1CCCN1C2=O  Active
3  COc1cc2c(cc1OCCCCCN1CCN(C(=O)c3ccccc3NCc3coc4ccccc4c3=O)CC1)N=C[C@@H]1CCCN1C2=O  Active

Hello, the source for this data is ChEMBL document CHEMBL1155482, in case you need it.
